What follows is a collection of IC50 values obtained with PI3Kγ (p120γ) (Homo sapiens, UniProt P48736).
Sequence (P48736 whole entry): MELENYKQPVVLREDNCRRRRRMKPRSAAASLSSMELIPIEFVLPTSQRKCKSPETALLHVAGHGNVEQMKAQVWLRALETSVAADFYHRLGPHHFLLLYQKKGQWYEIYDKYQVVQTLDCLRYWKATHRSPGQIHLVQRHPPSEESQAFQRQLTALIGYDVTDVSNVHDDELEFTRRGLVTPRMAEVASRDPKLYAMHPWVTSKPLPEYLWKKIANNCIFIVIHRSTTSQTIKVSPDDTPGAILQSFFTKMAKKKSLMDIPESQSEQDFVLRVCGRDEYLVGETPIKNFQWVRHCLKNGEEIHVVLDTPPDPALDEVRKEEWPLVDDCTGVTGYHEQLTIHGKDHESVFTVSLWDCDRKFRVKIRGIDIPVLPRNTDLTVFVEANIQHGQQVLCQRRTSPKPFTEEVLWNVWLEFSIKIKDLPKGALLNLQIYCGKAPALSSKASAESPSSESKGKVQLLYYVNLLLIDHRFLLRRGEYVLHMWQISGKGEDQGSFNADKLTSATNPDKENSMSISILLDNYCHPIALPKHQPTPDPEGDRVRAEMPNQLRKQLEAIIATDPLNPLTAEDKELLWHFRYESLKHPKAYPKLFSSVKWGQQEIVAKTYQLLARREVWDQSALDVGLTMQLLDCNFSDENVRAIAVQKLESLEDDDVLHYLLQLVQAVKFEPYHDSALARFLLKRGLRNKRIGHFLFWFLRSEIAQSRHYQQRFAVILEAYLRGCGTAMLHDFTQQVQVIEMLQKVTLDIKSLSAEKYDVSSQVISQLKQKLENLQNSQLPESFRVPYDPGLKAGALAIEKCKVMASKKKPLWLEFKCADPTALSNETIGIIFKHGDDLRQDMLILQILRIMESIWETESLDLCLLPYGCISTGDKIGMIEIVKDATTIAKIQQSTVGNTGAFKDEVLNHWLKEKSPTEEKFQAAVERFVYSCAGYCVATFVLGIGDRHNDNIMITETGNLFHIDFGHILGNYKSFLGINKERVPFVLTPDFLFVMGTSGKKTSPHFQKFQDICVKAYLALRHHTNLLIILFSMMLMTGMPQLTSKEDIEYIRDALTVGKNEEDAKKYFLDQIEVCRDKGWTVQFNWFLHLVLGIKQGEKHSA
RECORDED_METRIC: IC50

[
  {
    "STRUCTURE_SMILES": "C=CS(=O)(=O)N1CCN(Cc2cc3nc(-c4cccc5[nH]ncc45)nc(N4CCOCC4)c3s2)CC1",
    "RESULT": "100 to 1000 nM"
  },
  {
    "STRUCTURE_SMILES": "C=CC(=O)Nc1ccc(C(=O)N2CC=C(c3cc4nc(-c5cnc(N)nc5)cc(N5CCOCC5)c4s3)CC2)cc1",
    "RESULT": "100 to 1000 nM"
  },
  {
    "STRUCTURE_SMILES": "C=CC(=O)n1cc(-c2ccc3c(c2)N(c2nc4c(s2)C(=O)NC(C)(C)C4)CCO3)cn1",
    "RESULT": "100 to 1000 nM"
  },
  {
    "STRUCTURE_SMILES": "C=CC(=O)N(C)CC(=O)N1CCN(Cc2cc3nc(-c4cccc5[nH]ncc45)nc(N4CCOCC4)c3s2)CC1",
    "RESULT": "> 1000 nM"
  }
]

---

molecular target: PI3Kβ (p110β/p85α) (Homo sapiens); assay: HTRF assay, potency against active PI3Kβ; conditions: [ATP]=50 μM, [di-C8-PIP2]=10 μM, 30 min pre-incubation, read-out: PI3Kβ Inhibition
Sequence (P42338 whole entry): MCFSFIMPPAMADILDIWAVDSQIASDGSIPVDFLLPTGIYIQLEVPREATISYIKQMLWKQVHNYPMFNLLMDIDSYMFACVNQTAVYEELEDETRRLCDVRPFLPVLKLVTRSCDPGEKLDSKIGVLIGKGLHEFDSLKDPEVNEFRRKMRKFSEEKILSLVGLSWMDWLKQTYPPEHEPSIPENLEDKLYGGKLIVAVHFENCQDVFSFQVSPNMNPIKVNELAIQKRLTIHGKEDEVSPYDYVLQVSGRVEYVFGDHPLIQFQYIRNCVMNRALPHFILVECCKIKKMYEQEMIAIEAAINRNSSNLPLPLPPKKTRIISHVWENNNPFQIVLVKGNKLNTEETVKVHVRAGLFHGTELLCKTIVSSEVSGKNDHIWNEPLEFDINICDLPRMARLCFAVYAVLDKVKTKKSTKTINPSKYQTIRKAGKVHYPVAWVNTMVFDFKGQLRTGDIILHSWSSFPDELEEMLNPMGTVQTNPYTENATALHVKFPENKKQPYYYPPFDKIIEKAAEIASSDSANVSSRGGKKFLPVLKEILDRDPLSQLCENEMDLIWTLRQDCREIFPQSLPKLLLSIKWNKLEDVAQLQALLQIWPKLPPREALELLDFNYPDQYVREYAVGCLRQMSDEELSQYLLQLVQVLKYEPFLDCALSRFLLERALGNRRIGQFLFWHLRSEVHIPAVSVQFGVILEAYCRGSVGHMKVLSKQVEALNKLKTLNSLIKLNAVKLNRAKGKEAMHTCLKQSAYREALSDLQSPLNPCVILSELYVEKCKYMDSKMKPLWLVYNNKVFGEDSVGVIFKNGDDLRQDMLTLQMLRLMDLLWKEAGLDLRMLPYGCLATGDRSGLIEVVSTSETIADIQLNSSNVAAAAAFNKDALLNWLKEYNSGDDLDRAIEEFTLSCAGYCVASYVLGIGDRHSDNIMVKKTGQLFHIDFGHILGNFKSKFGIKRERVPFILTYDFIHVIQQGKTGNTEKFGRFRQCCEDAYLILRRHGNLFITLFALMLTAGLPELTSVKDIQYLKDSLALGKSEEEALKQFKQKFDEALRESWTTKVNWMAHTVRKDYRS
Sequence (P27986 whole entry partner): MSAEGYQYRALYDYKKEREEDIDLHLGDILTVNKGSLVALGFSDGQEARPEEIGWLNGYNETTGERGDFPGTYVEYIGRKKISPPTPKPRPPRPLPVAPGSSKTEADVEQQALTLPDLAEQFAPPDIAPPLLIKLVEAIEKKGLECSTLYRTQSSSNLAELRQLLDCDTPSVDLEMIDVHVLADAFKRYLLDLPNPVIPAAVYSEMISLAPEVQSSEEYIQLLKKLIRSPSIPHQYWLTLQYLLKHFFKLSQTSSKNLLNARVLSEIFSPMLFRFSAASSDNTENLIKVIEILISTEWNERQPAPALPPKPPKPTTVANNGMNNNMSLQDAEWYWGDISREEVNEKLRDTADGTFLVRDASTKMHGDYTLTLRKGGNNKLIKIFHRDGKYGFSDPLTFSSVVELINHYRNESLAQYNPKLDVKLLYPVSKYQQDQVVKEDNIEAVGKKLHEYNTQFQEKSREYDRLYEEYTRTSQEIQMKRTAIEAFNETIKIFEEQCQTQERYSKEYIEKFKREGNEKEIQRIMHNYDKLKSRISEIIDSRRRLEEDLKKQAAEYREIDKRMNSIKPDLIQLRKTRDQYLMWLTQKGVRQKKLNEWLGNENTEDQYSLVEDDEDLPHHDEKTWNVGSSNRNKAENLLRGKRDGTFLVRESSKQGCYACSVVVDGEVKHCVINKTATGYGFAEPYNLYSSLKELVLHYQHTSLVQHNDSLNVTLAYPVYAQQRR
Measured IC50 accompanies every entry in the list below.

[
  {
    "STRUCTURE_SMILES": "C=C(C)C(=O)CCC(=O)N1CCN(Cc2cc3nc(-c4cccc5[nH]ncc45)nc(N4CCOCC4)c3s2)CC1",
    "IC50": "> 1000 nM"
  },
  {
    "STRUCTURE_SMILES": "O=C(/C=C/C1CC1)CCC(=O)N1CCN(Cc2cc3nc(-c4cccc5[nH]ncc45)nc(N4CCOCC4)c3s2)CC1",
    "IC50": "> 1000 nM"
  },
  {
    "STRUCTURE_SMILES": "CC(C)=CC(=O)CCCC(=O)N1CC=C(c2cc3nc(-c4cnc(N)nc4)nc(C4=CCOCC4)c3s2)CC1",
    "IC50": "> 1000 nM"
  },
  {
    "STRUCTURE_SMILES": "CC(C)=CC(=O)CCC(=O)N1CCN(Cc2cc3nc(-c4cccc5[nH]ncc45)nc(N4CCOCC4)c3s2)CC1",
    "IC50": "> 1000 nM"
  },
  {
    "STRUCTURE_SMILES": "O=C(/C=C/c1ccccc1)CCC(=O)N1CCN(Cc2cc3nc(-c4cccc5[nH]ncc45)nc(N4CCOCC4)c3s2)CC1",
    "IC50": "> 1000 nM"
  },
  {
    "STRUCTURE_SMILES": "C=CC(=O)Nc1ccc(C(=O)N2CC=C(c3cc4nc(-c5cccc6[nH]ncc56)nc(N5CCOCC5)c4s3)CC2)cc1",
    "IC50": "100 to 1000 nM"
  },
  {
    "STRUCTURE_SMILES": "C/C=C/C(=O)CCC(=O)N1CCN(Cc2cc3nc(-c4cccc5[nH]ncc45)nc(N4CCOCC4)c3s2)CC1",
    "IC50": "> 1000 nM"
  },
  {
    "STRUCTURE_SMILES": "C=CC(=O)Nc1ccc(CCNC(=O)c2cc3nc(-c4cccc5[nH]ncc45)nc(N4CCOCC4)c3s2)cc1",
    "IC50": "> 1000 nM"
  },
  {
    "STRUCTURE_SMILES": "CC(C)=CC(=O)CCC(=O)N1CCN(C(=O)c2cc3nc(-c4cccc5[nH]ncc45)nc(N4CCOCC4)c3s2)CC1",
    "IC50": "> 1000 nM"
  },
  {
    "STRUCTURE_SMILES": "CCC(=O)Nc1ccc(CCNC(=O)c2cc3nc(-c4cccc5[nH]ncc45)nc(N4CCOCC4)c3s2)cc1",
    "IC50": "> 1000 nM"
  },
  {
    "STRUCTURE_SMILES": "C/C=C/C(=O)CCC(=O)N1CCN(Cc2cc3nc(-c4cnc(N)nc4)nc(N4CCOCC4)c3s2)CC1",
    "IC50": "100 to 1000 nM"
  }
]

Recorded values, source patent US20110230476A1.
